Target: hAPJ (Homo sapiens, UniProt P35414)
Sequence (P35414 1-380): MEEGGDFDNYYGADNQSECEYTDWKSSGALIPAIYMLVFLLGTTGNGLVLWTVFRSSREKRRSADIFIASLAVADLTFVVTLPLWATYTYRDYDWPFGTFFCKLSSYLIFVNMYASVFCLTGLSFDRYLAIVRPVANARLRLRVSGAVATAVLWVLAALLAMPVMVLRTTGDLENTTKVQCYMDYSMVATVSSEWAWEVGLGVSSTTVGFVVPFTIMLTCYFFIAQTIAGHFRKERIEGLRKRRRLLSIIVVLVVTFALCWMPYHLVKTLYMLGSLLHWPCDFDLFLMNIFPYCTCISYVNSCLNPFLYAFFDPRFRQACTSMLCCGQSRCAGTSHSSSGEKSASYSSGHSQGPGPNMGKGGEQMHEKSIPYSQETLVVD
Assay: cAMP assay (DiscoverX)
Type: cell-based
Ends that are not written are not given here.
Measurement label: EC50 (nM)
Write the answer as a number in nM, unit excluded.

Given the sequence QRPRLAHKGPMPF [reference compound] , write its reported EC50.
0.6

----------
Molecular target: UniProt:P35414
Test: beta arrestin assay (DiscoverX)
Assay type: cell-based
Details: ratio of β-arrestin EC50 to cAMP EC50
Numbered stars: 1 amine (or outer) side, 2 acyl side, 3 side chain; on linkers, the order of the positions; unused ones are H or OH. Bridge positions count the residues as written; N and C are the ends. Square brackets hold non-standard residues; d marks the D form. Peptide text beside a SMILES is read from it. ξ: configuration not given here. ξAbu(3ξ-yl) = CC(C(N[*:1])C(=O)[*:2])[*:3]; pGlu = O=C1CC[C@@H](C(=O)O)N1; X1 = CC=C(N[*:1])C(=O)[*:2]; ξC = NC(CS)C(=O)O
Measurement label: Ratio β-arrestin/cAMP
Reply with the value as a number alone.

>>> reported_value("CC=C(NC(=O)[C@H](CCSC)NC(=O)[C@@H]1CCCN1C(=O)C1CSC(C)C(NC(=O)[C@H](CC(C)C)NC(=O)[C@H](CCCNC(=N)N)NC(=O)[C@@H]2CCCN2C(=O)[C@H](CCCNC(=N)N)NC(=O)[C@@H]2CCC(=O)N2)C(=O)N[C@@H](Cc2c[nH]cn2)C(=O)N[C@@H](CCCCN)C(=O)N1)C(=O)N[C@@H](Cc1ccccc1)C(=O)O (stereo partly drawn) [pEApeM5T, pERPRLmeLanHKmeLanPMDhbF] ([pGlu]RPRL[ξAbu(3ξ-yl)]HK[ξC]PM[X1]F-OH; thioether 6-9; C-terminus assumed)")
0.16

Given the compound CSCC[C@@H]1NC(=O)[C@@H]2CCCN2C(=O)CNC(=O)C(NC(=O)[C@H](Cc2c[nH]cn2)NC(=O)[C@H](C)NC(=O)[C@H](CC(C)C)NC(=O)[C@H](CCCNC(=N)N)NC(=O)[C@@H]2CCCN2C(=O)[C@H](CCCNC(=N)N)NC(=O)[C@@H]2CCC(=O)N2)CSCC(C(=O)N[C@@H](Cc2ccccc2)C(=O)O)NC1=O (stereo partly drawn) [pEApeT8cS] , write its reported Ratio β-arrestin/cAMP.
122

----------
molecules and their reported half-life at 0.1 mg/ml
Test: Stability of apelin analogs in rat plasma
Format: in vitro ADME
Settings: rat, plasma, pH 7.4
Numbered stars: 1 amine (or outer) side, 2 acyl side, 3 side chain; on linkers, the order of the positions; unused ones are H or OH. Bridge positions count the residues as written; N and C are the ends. Square brackets hold non-standard residues; d marks the D form. Peptide text beside a SMILES is read from it. ξ: configuration not given here. ξAbu(3ξ-yl) = CC(C(N[*:1])C(=O)[*:2])[*:3]; pGlu = O=C1CC[C@@H](C(=O)O)N1
Write the answer as a number in h, unit excluded.

>>> reported_value("CSCC[C@H](NC(=O)[C@@H]1CCCN1C(=O)CNC(=O)[C@@H]1CSC(C)C(NC(=O)[C@H](CC(C)C)NC(=O)[C@H](CCCNC(=N)N)NC(=O)[C@@H]2CCCN2C(=O)[C@H](CCCNC(=N)N)NC(=O)[C@@H]2CCC(=O)N2)C(=O)N[C@@H](Cc2c[nH]cn2)C(=O)N[C@@H](CCCCN)C(=O)N1)C(=O)N1CCC[C@H]1C(=O)N[C@@H](C)C(=O)O (some centres unmarked) [pERPRLmeLanHKmeLanGPMPA] ([pGlu]RPRL[ξAbu(3ξ-yl)]HKCGPMPA-OH; thioether 6-9)")
7

Field: next molecule
Given the molecule CSCC[C@H](NC(=O)[C@@H]1CCCN1C(=O)CNC(=O)[C@@H]1CSC(C)C(NC(=O)[C@H](CC(C)C)NC(=O)[C@H](CCCNC(=N)N)NC(=O)[C@@H]2CCCN2C(=O)[C@H](CCCNC(=N)N)NC(=O)[C@@H]2CCC(=O)N2)C(=O)N[C@@H](Cc2c[nH]cn2)C(=O)N[C@@H](CCCCN)C(=O)N1)C(=O)N1CCC[C@H]1C(=O)N[C@@H](Cc1ccccc1)C(=O)O (some centres unmarked) [pEApeM6, pERPRLmeLanHKmeLanGPMPF] ([pGlu]RPRL[ξAbu(3ξ-yl)]HKCGPMPF-OH; thioether 6-9) , write its reported half-life at 0.1 mg/ml.
8
